Reference for the values: patent US6875760B2

- Assay System: human glucagon receptor (Homo sapiens, UniProt P47871)
- Construct: expressed in transfected cells; host or cells: BHK (baby hamster kidney) cells
- Sequence (P47871 26-477): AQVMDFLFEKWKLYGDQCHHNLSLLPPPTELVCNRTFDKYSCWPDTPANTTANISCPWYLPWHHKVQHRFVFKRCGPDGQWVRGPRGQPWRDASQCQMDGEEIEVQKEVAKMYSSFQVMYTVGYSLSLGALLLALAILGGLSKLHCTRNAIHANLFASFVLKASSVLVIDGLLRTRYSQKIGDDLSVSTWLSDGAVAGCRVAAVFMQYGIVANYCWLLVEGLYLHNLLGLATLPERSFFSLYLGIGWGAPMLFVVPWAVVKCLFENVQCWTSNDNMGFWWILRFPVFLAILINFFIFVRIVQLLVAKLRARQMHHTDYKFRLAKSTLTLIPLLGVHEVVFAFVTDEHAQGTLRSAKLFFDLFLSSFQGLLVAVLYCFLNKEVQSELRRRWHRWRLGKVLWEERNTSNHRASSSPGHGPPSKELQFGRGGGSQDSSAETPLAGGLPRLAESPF
- Assay Summary: Glucagon Binding Assay (III)
- Run Parameters: BHK cell membranes, WGA SPA beads, 125I-glucagon; read-out: Glu Bd Assay (III) IC50
pIC50: −log10 of the molar value.
Each entry below carries its recorded pIC50.
Parameter Measured: pIC50

molecule="O=C(O)CCNC(=O)c1ccc(CN(Cc2ccc(C(F)(F)F)cc2)Cc2ccc(C(F)(F)F)cc2)cc1 [Example 384]" data_value=6.49
molecule="CCC1CCC(N(Cc2ccc(C(=O)NCCC(=O)O)cc2)C(=O)Nc2ccc(OC(F)(F)F)cc2)CC1 (stereo not shown) [Example 83]" data_value=6.69
molecule="O=C(Nc1nn[nH]n1)c1ccc(CN(C(=O)Nc2ccc3c(c2)S(=O)(=O)CC3)c2ccc(C3CCCCC3)cc2)cc1 [Example 258]" data_value=6.11
molecule="O=C(Nc1nn[nH]n1)c1ccc(CN(C(=O)Nc2ccc3c(c2)C(F)(F)OC(F)(F)O3)c2ccc(C3=CCCCC3)cc2)cc1 [Example 358]" data_value=7.72

====

- Assay System: cloned human glucagon receptor (Homo sapiens, UniProt P47871)
- Construct: expressed in transfected cells; plasma membrane preparation
- Sequence (P47871 26-477): as above
- Assay Summary: Glucagon Binding Assay (II)
- Run Parameters: plasma membranes of BHK cells expressing the receptor; read-out: Glu Bd Assay (II) IC50
pIC50: −log10 of the molar value.
Parameter Measured: pIC50

compound=O=C(Nc1nn[nH]n1)c1ccc(CN(C(=O)Nc2ccc(OC(F)(F)F)cc2)[C@H]2CC[C@@H](C3CCCCC3)CC2)cc1 data_value=7.82
compound=O=C(O)CCNC(=O)c1ccc(CN(C(=O)Nc2ccc(OC(F)(F)F)cc2)C2CCC3(CC2)SCCS3)cc1 data_value=6.00
compound=O=C(Nc1nn[nH]n1)c1ccc(CN(C(=O)NCc2ccc(Cl)c(Cl)c2)c2ccc(C3CCCCC3)cc2)cc1 data_value=7.41
compound="COC(=O)CCNC(=O)c1ccc(CN(C(=O)Nc2cc(C(F)(F)F)cc(C(F)(F)F)c2)C2CCC(C(C)(C)C)CC2)cc1 (centres unmarked)" data_value=7.00
compound=CC(C)(C)[C@H]1CC[C@H](N(Cc2ccc(C(=O)NCCC(=O)O)cc2)C(=O)Nc2ccc(SC(F)(F)F)cc2)CC1 data_value=7.85
compound="O=C(O)CCNC(=O)c1ccc(CN(C(=O)Nc2ccc(OC(F)(F)F)cc2)C2CCC3CCCCC3C2)cc1 (centres unmarked) [drawing 1173]" data_value=6.37
compound="CC(C)(C)C1CCC(N(Cc2ccc(C(=O)NCCC(=O)O)cc2)C(=O)Nc2cc(Cl)nc(Cl)c2)CC1 (centres unmarked)" data_value=6.82
compound="CC(C)(C)C1CCC(N(Cc2ccc(C(=O)NCCC(=O)O)s2)C(=O)Nc2ccc(OC(F)(F)F)cc2)CC1 (centres unmarked)" data_value=6.60
compound="CC(C)(C)C1CCC(N(Cc2ccc(CNc3nn[nH]n3)cc2)C(=O)Nc2ccc(OC(F)(F)F)cc2)CC1 (mixture of isomers)" data_value=6.62
compound=O=C(O)CCNC(=O)c1ccc(CN(Cc2ccc(OC(F)(F)F)cc2)[C@H]2CC[C@@H](C3CCCCC3)CC2)cc1 data_value=7.36
compound=CC(C)(C)[C@H]1CC[C@@H](N(Cc2ccc(C(=O)NCCC(=O)O)cc2)NC(=O)c2cccc(OC(F)(F)F)c2)CC1 data_value=6.65
compound="CC(C)(C)C1CCC(N(Cc2ccc(C(=O)NCCC(=O)O)cc2)C(=O)Nc2ccc(Cl)cc2)CC1 (centres unmarked)" data_value=6.64
compound=CCCCOC(=O)c1ccc(NC(=O)N(CCC(C)C)Cc2ccc(C(=O)NCCC(=O)O)cc2)cc1 data_value=6.60
compound="CC(C)(C)C1CCC(N(Cc2ccc(C(=O)NCCC(=O)O)cc2)C(=O)Nc2cc(Cl)cc(Cl)c2)CC1 (centres unmarked)" data_value=7.30

====

- Assay System: human glucagon receptor (Homo sapiens, UniProt P47871)
- Construct: expressed in transfected cells; host or cells: BHK (baby hamster kidney) cells
- Assay Summary: Glucagon Binding Assay (III)
- Run Parameters: BHK cell membranes, WGA SPA beads, 125I-glucagon; read-out: Glu Bd Assay (III) IC50
Each entry below carries its recorded IC50.
Parameter Measured: IC50 (nM)

compound="CCN(c1ccccc1)S(=O)(=O)c1cccc(NC(=O)N(Cc2ccc(C(=O)NCCC(=O)O)cc2)c2ccc(C3CCCCC3)cc2)c1 [Example 265]" data_value=30
compound="CN(c1ccccc1)S(=O)(=O)c1cccc(NC(=O)N(Cc2ccc(C(=O)Nc3nn[nH]n3)cc2)c2ccc(C3CCCCC3)cc2)c1 [Example 266]" data_value=15
compound="CC(C)(C)C1CCC(N(Cc2ccc(C(=O)Nc3nn[nH]n3)cc2)C(=O)c2cc3ccccc3s2)CC1 (centres unmarked) [Example 473]" data_value=1500
compound="CC(C)(C)c1ccc(N(Cc2ccc(C(=O)Nc3nn[nH]n3)cc2)C(=O)Nc2cccc(C#N)c2)cc1 [Example 295]" data_value=279
compound="CC(C)(C)C1CCC(N(Cc2ccc(C(=O)Nc3nn[nH]n3)cc2)C(=O)NCCc2ccccc2)CC1 (centres unmarked) [Example 324]" data_value=277
compound="O=C(O)CCNC(=O)c1ccc(CN(C(=O)Nc2ccc(OC(F)(F)F)cc2)c2ccc(OC(F)(F)F)cc2)cc1 [Example 438]" data_value=288
compound="CC(O)c1cccc(NC(=O)N(Cc2ccc(C(=O)Nc3nn[nH]n3)cc2)c2ccc(C(C)(C)C)cc2)c1 (centres unmarked) [Example 309]" data_value=566
compound="O=C(O)CCNC(=O)c1ccc(CN(Cc2cc(Cl)cc(Cl)c2)NC(=O)c2ccc(OC(F)(F)F)cc2)cc1 [Example 422]" data_value=536
compound="O=C(Nc1nn[nH]n1)c1ccc(CN(C(=O)Nc2nc3ccc([N+](=O)[O-])cc3s2)c2ccc(C3CCCCC3)cc2)cc1 [Example 342]" data_value=376
compound="O=C(Nc1nn[nH]n1)c1ccc(CN(CC(c2ccccc2)c2ccccc2)C(=O)/C=C/c2c(Cl)cccc2Cl)cc1 [Example 478]" data_value=2940
compound="CC(C)(C)C1CCC(N(Cc2ccc(C(=O)Nc3nn[nH]n3)cc2)C(=O)c2cccc3[nH]ccc23)CC1 (centres unmarked) [Example 516]" data_value=2490
compound="C[S+]([O-])c1cccc(NC(=O)N(Cc2ccc(C(=O)Nc3nn[nH]n3)cc2)c2ccc(C3CCCCC3)cc2)c1 (centres unmarked) [Example 472]" data_value=255
compound="CC(C)(C)C1CCC(N(Cc2ccc(C(=O)NCCC(=O)O)cc2)C(=O)Nc2ccc(Oc3ccccc3)cc2)CC1 (centres unmarked) [Example 57]" data_value=90
compound="CC(C)(C)C1CCC(N(Cc2ccc(C(=O)Nc3nn[nH]n3)cc2)C(=O)Cc2cccc(OC(F)(F)F)c2)CC1 (centres unmarked) [Example 543]" data_value=201

====

- Assay System: cloned human glucagon receptor (Homo sapiens, UniProt P47871)
- Construct: expressed in transfected cells; plasma membrane preparation
- Assay Summary: Glucagon Binding Assay (II)
- Run Parameters: plasma membranes of BHK cells expressing the receptor; read-out: Glu Bd Assay (II) IC50
pIC50: −log10 of the molar value.
Parameter Measured: pIC50

molecule=O=C(O)CCNC(=O)c1ccc(CN(Cc2ccc(OC(F)(F)F)cc2)[C@H]2CC[C@H](C3CCCCC3)CC2)cc1 data_value=6.95
molecule="CC(C)(C)C1CCC(N(Cc2ccc(C(=O)Nc3nn[nH]n3)cc2)C(=O)Nc2cc(Cl)cc(Cl)c2)CC1 (stereo not shown)" data_value=8.15
molecule=N#Cc1ccc(NC(=O)N(Cc2ccc(C(=O)Nc3nn[nH]n3)cc2)c2ccc(C3CCCCC3)cc2)cc1C(F)(F)F data_value=8.15
molecule=O=C(Nc1nn[nH]n1)c1ccc(CN(C(=O)Nc2ccc(Cl)c(C(F)(F)F)c2)c2ccc(C3CCCCC3)cc2)cc1 data_value=8.52
molecule="CC1CC(C)CC(N(Cc2ccc(C(=O)NCCC(=O)O)cc2)C(=O)Nc2cc(Cl)cc(Cl)c2)C1 (stereo not shown)" data_value=6.34
molecule=CC1(C)[C@@H]2CC[C@@H](CN(Cc3ccc(C(=O)NCCC(=O)O)cc3)C(=O)Nc3ccc(OC(F)(F)F)cc3)[C@@H]1C2 data_value=6.95
molecule=Cc1ccc(CN(CCc2ccc(Cl)cc2Cl)Cc2ccc(C(=O)NCCC(=O)O)cc2)cc1 data_value=6.34
molecule=CC(C)(C)[C@H]1CC[C@@H](N(Cc2ccc(C(=O)NCCC(=O)O)cc2)NC(=O)c2cc(Cl)cc(Cl)c2)CC1 data_value=7.12
molecule=C[C@@H](C1CCCCC1)N(Cc1ccc(C(=O)NCCC(=O)O)cc1)C(=O)Nc1ccc(OC(F)(F)F)cc1 data_value=6.42
molecule=O=C(O)CCNC(=O)c1ccc(CN(C(=O)Nc2ccc(OC(F)(F)F)cc2)c2ccc(C3CCCCC3)cc2)cc1 data_value=7.48
molecule=CCCCOC(=O)c1ccc(NC(=O)N(Cc2ccc(C(=O)NCCC(=O)O)cc2)CC2CCCCC2)cc1 data_value=6.58
molecule=CC(C)(C)[C@H]1CC[C@H](N(Cc2ccc(C(=O)NCCC(=O)O)cc2)Cc2cc(Cl)cc(Cl)c2)CC1 data_value=7.24
molecule=O=C(O)CCNC(=O)c1ccc(CN(Cc2ccc(OC(F)(F)F)cc2)c2ccc(C3CCCCC3)cc2)cc1 data_value=6.99
molecule="CC(C)(C)C1CCC(N(Cc2ccc(C(=O)NCCC(=O)O)cc2)C(=O)Nc2ccc(SC(F)(F)F)cc2)CC1 (stereo not shown)" data_value=6.92
molecule=CC(C)(C)[C@H]1CC[C@H](N(Cc2ccc(C(=O)NCCC(=O)O)cc2)Cc2cccc(S(C)(=O)=O)c2)CC1 data_value=6.24
molecule=C[C@H](NC(=O)N(Cc1ccc(C(=O)Nc2nn[nH]n2)cc1)c1ccc(C2CCCCC2)cc1)c1ccccc1 data_value=6.95
molecule="CC(C)(C)C1CCC(N(Cc2ccc(C(=O)NCCC(=O)O)cc2)C(=O)Nc2ccc3ccccc3c2)CC1 (stereo not shown)" data_value=6.78
molecule="Cc1ccc(NC(=O)N(Cc2ccc(S(=O)(=O)NCCC(=O)O)cc2)C2CCC(C(C)(C)C)CC2)cc1F (stereo not shown)" data_value=5.92
molecule=O=C(O)CCNC(=O)c1ccc(CN(C(=O)Nc2ccc(SC(F)(F)F)cc2)c2ccc(C3CCCCC3)cc2)cc1 data_value=7.70
molecule="O=C(O)CCNC(=O)c1ccc(CN(C(=O)Nc2ccc(OC(F)(F)F)cc2)C2CCC(C3CCCCC3)CC2)cc1 (stereo not shown)" data_value=7.74
molecule=C[C@H](NC(=O)N(Cc1ccc(C(=O)NCCC(=O)O)cc1)c1ccc(C2CCCCC2)cc1)c1ccccc1 data_value=6.14
molecule="CC(C)(C)C1CCC(N(Cc2ccc(C(=O)NCCC(=O)O)cc2)C(=O)Nc2cc(C(F)(F)F)cc(C(F)(F)F)c2)CC1 (stereo not shown)" data_value=8.00
molecule="CC1CC(N(Cc2ccc(C(=O)NCCC(=O)O)cc2)C(=O)Nc2cc(Cl)cc(Cl)c2)CC(C)(C)C1 (stereo not shown)" data_value=6.19
molecule=O=C(O)CCNC(=O)c1ccc(CN(Cc2cccc(Cl)c2)Cc2cccc(Cl)c2)cc1 data_value=6.78
molecule=C[C@H](C1CCCCC1)N(Cc1ccc(C(=O)NCCC(=O)O)cc1)C(=O)Nc1ccc2ccccc2c1 data_value=6.04
molecule=CC(C)(C)[C@H]1CC[C@@H](N(Cc2ccc(C(=O)NCCC(=O)O)cc2)NC(=O)c2ccc(F)c(F)c2)CC1 data_value=6.27
molecule=O=C(Nc1nn[nH]n1)c1ccc(CN(C(=O)Nc2ccc3c(c2)OC(F)(F)C(F)(F)O3)c2ccc(C3CCCCC3)cc2)cc1 data_value=7.89
molecule=O=C(O)CCNC(=O)c1ccc(CN(C(=O)Nc2ccc3[nH]ccc3c2)c2ccc(C3CCCCC3)cc2)cc1 data_value=5.73
